Reference source: patent US20220380768A1

Attribute: CD22 Median Fluorescent Intensity on CD20+ cells
molecular target: T1, human CD22 on B cells of human PBMCs (human, UniProt P20273 20-847); experiment: flow cytometry; Alexa Fluor 647-labelled antibody on CD20+ B cells of human PBMCs; note: test concentration or dose not given here
T1 construct: whole, on cells; also called CD22 on human B cells
MEASUREMENT NAME: CD22 Median Fluorescent Intensity on CD20+ cells

{"BINDER": "TNT75 (antibody, human IgG1, kappa, V domains shown) VH: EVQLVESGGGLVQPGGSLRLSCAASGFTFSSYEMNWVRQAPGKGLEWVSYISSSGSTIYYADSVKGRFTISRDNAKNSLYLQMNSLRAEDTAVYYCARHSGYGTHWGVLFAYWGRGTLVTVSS VL: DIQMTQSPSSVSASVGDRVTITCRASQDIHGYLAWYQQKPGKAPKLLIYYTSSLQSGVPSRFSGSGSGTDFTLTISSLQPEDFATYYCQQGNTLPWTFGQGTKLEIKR", "REPORTED MEASUREMENT": 1630}
{"BINDER": "TNT79 (antibody, human IgG1, kappa, V domains shown) VH: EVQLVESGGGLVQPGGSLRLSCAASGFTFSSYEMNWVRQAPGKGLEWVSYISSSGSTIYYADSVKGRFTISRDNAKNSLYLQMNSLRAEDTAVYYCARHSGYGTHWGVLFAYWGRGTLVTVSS VL: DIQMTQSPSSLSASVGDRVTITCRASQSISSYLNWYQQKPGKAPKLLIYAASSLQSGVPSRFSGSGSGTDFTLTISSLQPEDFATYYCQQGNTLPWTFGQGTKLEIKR", "REPORTED MEASUREMENT": 1300}
{"BINDER": "TNT76 (antibody, human IgG1, kappa, V domains shown) VH: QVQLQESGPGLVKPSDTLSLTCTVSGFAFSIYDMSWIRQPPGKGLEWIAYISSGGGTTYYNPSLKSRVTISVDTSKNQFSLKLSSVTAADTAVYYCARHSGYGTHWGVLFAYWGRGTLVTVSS VL: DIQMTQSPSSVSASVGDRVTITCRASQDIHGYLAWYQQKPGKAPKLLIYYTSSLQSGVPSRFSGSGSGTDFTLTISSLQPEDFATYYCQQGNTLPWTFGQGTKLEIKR", "REPORTED MEASUREMENT": 1190}
